Origin of values: patent US20260139048A1

Subject of test: T1, His-tagged cynomolgus TIGIT (cynomolgus, UniProt A0A7N9I9V4 89-209)
T1 construct: SPR analyte; also called cynomolgus TIGIT protein; not shown: His tag
Protocol details: SPR (Biacore T200), antibody captured, His-tagged TIGIT analyte
koff listing for selected binders.
API: value field is a number in s⁻¹; no unit string.

A selection of reference data follows.
| Binder | Measurement kind | Quantitative result |
| --- | --- | --- |
| TIGIT-100 chimeric antibody (antibody, human IgG1, kappa, V domains shown, Full-length chimeric IgG1 kappa) VH: QVQLQQPGPELVKPGASVKISCKASGYSFTDYNMNWVKQSNGKSLEWIGVINPNSGTDNYNQKFKGKATLTVDQSSSTAYMQLNSLTSEDSAVYFCARGVYFGNYFDSWGQGTTLTVSS VL: DIVMTQSPASLSASVGETVTITCRASENIYSSLAWYQQKQGKSPQLLVFNAKTLTEGVPSRFSGSGSGTQFSLKINSLQPEDFGSYYCQHHYGAPWTFGGGTKLEIKR | koff | 0.012 |
| TIGIT-15 chimeric antibody (antibody, human IgG1, kappa, V domains shown, Full-length chimeric IgG1 kappa) VH: DVQLVESGGGLVQPGGSLKLSCAASGFTFSSYGMSWVRQTPDRRLELVATINNNGGSTYYPDSVKGRFTISRDNARNTLYLQMSSLKSEDTAMYYCATRTGTEILGFDFWGQGTTLTVSS VL: DIVLTQSHKFMSTSLGDRVSITCKASQDVSTAVAWYQQKPGQSPKLLIYWASSRHTGVPDRFTGSRSGPDYTLTISSVQAEDLALYYCQQQYSTPWTFGGGTKLEIKR | koff | 0.0002 |

Prompt: Fill blank: measured koff of the binder TIGIT-6 chimeric antibody (antibody, human IgG1, kappa, V domains shown, also called 6VH + 6VL) VH: QVQLKQSGPELVKPGASVKISCKTSGYTITENTMHWVKQSHGKSLEWIGGINPNNGGTSYNQQFKGKATLTVDKSSSTAYMELRSLTSEDSAVYYCTRSSYYRYDLDYWGQGTTVTVSS VL: DIQMTQSHKFMSTSVGDRVSITCKASQDVKTALAWYQQKPGQSPKLLIYSASYRYTGVPDRFTGSGSGTDFTFTISSVQAEDLAVYYCHQHYTTPWTFGGGTKLEIKR is ____.
Completion: 0.0049
